# RUN DESCRIPTION: BSK_CASM3C_Proliferation: Cell Proliferation Assessment in the BioMAP Diversity Plus: CASM3C Assay (AID 2283047);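 note: sulforhodamine B total protein stain as relative cell number at 560 nm; sub-confluent cells exposed 48 h before staining; fitted both ways against DMSO so gain or loss of cell number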
# MEASUREMENT CONDITIONS: primary human coronary artery smooth muscle cells
Activity calls are given as the source filed them. Rule for the calls: active = hit-call score of the fitted dose curve at least 0.9, where 1 is the maximum; inactive = score below 0.9.
Lab note: assign the record to one of 1 (yes) = active, 0 (no) = inactive

O=C1OC2(c3cc(Br)c(O)c(Br)c3Oc3c2cc(Br)c(O)c3Br)c2c(Cl)c(Cl)c(Cl)c(Cl)c21: 0 (no)
CC1CCC(C(C)CS)CC1S (stereo not drawn): 1 (yes)
O=C(O)C[C@H](O)C[C@H](O)/C=C/c1c(C2CC2)nc2ccccc2c1-c1ccc(F)cc1: 1 (yes)
CC(C)(COC(=O)c1ccccc1)COC(=O)c1ccccc1: 0 (no)
N#Cc1ccc(CC(=NNC(=O)Nc2ccc(OC(F)(F)F)cc2)c2cccc(C(F)(F)F)c2)cc1: 0 (no)
C=C[Si](OCC)(OCC)OCC: 0 (no)
C#C[C@]1(O)CC[C@H]2[C@@H]3CCC4=Cc5oncc5C[C@]4(C)[C@H]3CC[C@@]21C: 1 (yes)
OC[C@H]1O[C@H](O[C@]2(CCl)O[C@H](CCl)[C@@H](O)[C@@H]2O)[C@H](O)[C@@H](O)[C@H]1Cl: 0 (no)

*Q* Please share the test call associated with NCCNCCN .
*A* 0 (no)

*Q* Please share the test call associated with CC(=O)/C=C/C1=C(C)CCCC1(C)C .
*A* 0 (no)

*Q* Please share the test call associated with CC(C)Oc1ccccc1O .
*A* 0 (no)

*Q* Please share the test call associated with OC1OC[C@@H](O)[C@H](O)[C@H]1O (stereo partly drawn) .
*A* 0 (no)

*Q* Please share the test call associated with O=C=NC1CCC(CC2CCC(N=C=O)CC2)CC1 (stereo not drawn) .
*A* 1 (yes)

---

# Read-out: Macrophage colony-stimulating factor (MCSF), CSF1 (gene 1435)
# RUN DESCRIPTION: BSK_CASM3C_MCSF: BioMAP Diversity Plus: CASM3C Assay for Macrophage colony-stimulating factor (MCSF) Biomarker Activity (AID 2283044);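 note: M-CSF protein amount quantified by ELISA after 24 h exposure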
# MEASUREMENT CONDITIONS: primary human coronary artery smooth muscle cells; actives raise or lower the signal
Calls of active or inactive are those of the source. How the source made its calls: active means hit-call score of the fitted dose curve at least 0.9, where 1 is the maximum; inactive means score below 0.9.
Lab note: assign the record to one of active, inactive

The examples below pair each entry with its known result.
OC[C@H]1O[C@H](O[C@]2(CCl)O[C@H](CCl)[C@@H](O)[C@@H]2O)[C@H](O)[C@@H](O)[C@H]1Cl: inactive
O=C1CCCCCCCCCCCCCCO1: active
C=CCOC(=O)CCC1CCCCC1: inactive
CC(=O)/C=C/C1=C(C)CCCC1(C)C: inactive
NCCNCCN: inactive
c1ccc2sc(SN(C3CCCCC3)C3CCCCC3)nc2c1: inactive

Consider now this further compound.
*Q* Please share the test call associated with CCCCCCCCCC=O .
*A* inactive

---

# Read-out: Matrix Metallopeptidase 1 (MMP1), MMP1 (gene 4312)
# RUN DESCRIPTION: BSK_MyoF_MMP1: BioMAP Diversity Plus: MyoF Assay for Matrix Metallopeptidase 1 (MMP1) Biomarker Activity (AID 2284268)
# MEASUREMENT CONDITIONS: primary human lung fibroblasts
Activity calls are given as the source filed them. The calls were made as follows: active = hit-call score of the fitted dose curve at least 0.9, where 1 is the maximum; inactive = score below 0.9.
Lab note: assign the record to one of active, inactive

C=C[Si](OCC)(OCC)OCC: inactive
CCn1c2ccccc2c2cc(N)ccc21: inactive
C#C[C@]1(O)CC[C@H]2[C@@H]3CCC4=Cc5oncc5C[C@]4(C)[C@H]3CC[C@@]21C: inactive
CCCCC(CC)COCCC#N (stereo not given): inactive
CCCCC(CC)COC(=O)/C=C\C(=O)OCC(CC)CCCC (stereo not given): inactive

*Q* Please share the test call associated with O=C(O)c1cn(C2CC2)c2cc(N3CCNCC3)c(F)cc2c1=O .
*A* inactive

*Q* Please share the test call associated with COC(=O)c1ccc(C)cc1 .
*A* inactive

*Q* Please share the test call associated with Cc1ccc(Nc2ccc(O)c3c2C(=O)c2ccccc2C3=O)cc1 .
*A* inactive

*Q* Please share the test call associated with CCCCCCCCC=O .
*A* inactive

*Q* Please share the test call associated with CC1COc2ccccc2N1C(=O)C(Cl)Cl (stereo not given) .
*A* active
